Assay: Rat pharmacokinetics
Format: in vivo, Sprague-Dawley rats
Details: male, Sprague-Dawley, IV 1 mg/kg, plasma
MEASURED_PARAMETER: Cmax (nM)
Use nM as the unit, but write only the number.

Please give the measured Cmax for this molecule: CC(C)c1nn([C@@H]2O[C@H](COS(N)(=O)=O)[C@@H](O)[C@H]2O)c2ncnc(N)c12
1540

* * *

Assay: Rat pharmacokinetics
Assay type: in vivo, Sprague-Dawley rats
Conditions: male, Sprague-Dawley, IV 1 mg/kg, plasma
MEASURED_PARAMETER: clearance (mL/min/kg)
Numbers only; they are read as mL/min/kg.

Quick one: clearance for CC(C)c1nn([C@@H]2O[C@H](COS(N)(=O)=O)[C@@H](O)[C@H]2O)c2ncnc(N)c12 [ML471] ?
64
